Molecular target: T1, ZFP SBS#1358 (synthetic)
T1 chain: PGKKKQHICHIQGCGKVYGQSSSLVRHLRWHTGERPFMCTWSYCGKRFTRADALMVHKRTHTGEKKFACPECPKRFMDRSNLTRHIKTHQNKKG
Assay: EMSA
Settings: tags: MBP fusion
Readout Name: Kd (nM)

| Binder | Readout Name | Unit String | Experimental Result |
| --- | --- | --- | --- |
| GACTTGGTA (dsDNA) DNA 1: GACTTGGTA DNA 2: TACCAAGTC | Kd | nM | 0.05 |
